Hey, just so you know, these numbers are from patent US12215093B2.

Biological target: UniProt P35408
Sequence (P35408 whole entry): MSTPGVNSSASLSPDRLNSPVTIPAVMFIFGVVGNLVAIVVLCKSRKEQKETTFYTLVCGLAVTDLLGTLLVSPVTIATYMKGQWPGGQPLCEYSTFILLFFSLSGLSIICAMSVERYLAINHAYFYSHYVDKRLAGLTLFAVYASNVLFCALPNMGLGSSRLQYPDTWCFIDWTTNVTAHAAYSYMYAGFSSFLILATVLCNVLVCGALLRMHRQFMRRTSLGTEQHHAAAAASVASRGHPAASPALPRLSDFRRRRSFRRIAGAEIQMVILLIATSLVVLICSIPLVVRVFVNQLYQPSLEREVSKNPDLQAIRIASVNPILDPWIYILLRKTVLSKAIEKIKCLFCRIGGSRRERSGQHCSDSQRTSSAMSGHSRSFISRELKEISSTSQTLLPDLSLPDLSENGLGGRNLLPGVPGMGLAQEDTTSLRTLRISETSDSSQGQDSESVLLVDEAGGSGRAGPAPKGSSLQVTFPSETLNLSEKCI
Experiment: Functional calcium flux assay, EP4
Settings: stably transfected HEK293 cells; PGE2 10 nM; read-out: EP4 Ca2+-flux assay IC50
Measured Quantity: IC50 (nM)

O=C(NC1CC2(C1)CC(C(=O)O)C2)c1ccc(Cl)c2ccn(Cc3ccc(-c4ccncc4)cc3)c12 (stereo not shown)    6.6

1: COc1cc(C#N)cc(-c2ccc(C(C)n3ncc4cccc(C(=O)NC5CC6(C5)CC(C(=O)O)C6)c43)cc2)c1 (racemic) [Example 114]
2: COc1ccc(-c2ccc(C(C)n3ccc4c(F)ccc(C(=O)NC5CC6(C5)CC(C(=O)O)C6)c43)cc2)cn1 (racemic)
For the pair 1 and 2 , which member has the lower IC50 number? # reply format: chosen label 2
